Origin of the recorded values: patent US20220356174A1

System: various lung cancer cell lines
ASSAY_EXPLANATION: Long term proliferation (LTP) assay in various cancer cell lines
Format: cell-based
TEST_SETTINGS: Homo sapiens, NCI-H1693, NCIH1693; SMARCA4 protein Absent; Lung NSCLC adenocarcinoma
TEST_READOUT: IC50 (nM)

>>> value_observed("O=C(Nc1cc(F)c(=O)n(CC(F)F)c1)c1cc(Cl)c(C(F)(F)F)s1")
202
>>> value_observed("N#Cc1sc(C(=O)Nc2cc(F)c(=O)n(CCF)c2)cc1Cl")
101

----------
TARGET_OF_ASSAY: FL-SMARCA2 (full-length human SMARCA2 isoform 1) (Homo sapiens, UniProt P51531)
Construct: FLAG tag (YKDDDDK) (C); made in house; host or cells: Sf21 insect cells (baculovirus, pFastBacI)
Sequence (P51531 with tags, fused parts or gaps): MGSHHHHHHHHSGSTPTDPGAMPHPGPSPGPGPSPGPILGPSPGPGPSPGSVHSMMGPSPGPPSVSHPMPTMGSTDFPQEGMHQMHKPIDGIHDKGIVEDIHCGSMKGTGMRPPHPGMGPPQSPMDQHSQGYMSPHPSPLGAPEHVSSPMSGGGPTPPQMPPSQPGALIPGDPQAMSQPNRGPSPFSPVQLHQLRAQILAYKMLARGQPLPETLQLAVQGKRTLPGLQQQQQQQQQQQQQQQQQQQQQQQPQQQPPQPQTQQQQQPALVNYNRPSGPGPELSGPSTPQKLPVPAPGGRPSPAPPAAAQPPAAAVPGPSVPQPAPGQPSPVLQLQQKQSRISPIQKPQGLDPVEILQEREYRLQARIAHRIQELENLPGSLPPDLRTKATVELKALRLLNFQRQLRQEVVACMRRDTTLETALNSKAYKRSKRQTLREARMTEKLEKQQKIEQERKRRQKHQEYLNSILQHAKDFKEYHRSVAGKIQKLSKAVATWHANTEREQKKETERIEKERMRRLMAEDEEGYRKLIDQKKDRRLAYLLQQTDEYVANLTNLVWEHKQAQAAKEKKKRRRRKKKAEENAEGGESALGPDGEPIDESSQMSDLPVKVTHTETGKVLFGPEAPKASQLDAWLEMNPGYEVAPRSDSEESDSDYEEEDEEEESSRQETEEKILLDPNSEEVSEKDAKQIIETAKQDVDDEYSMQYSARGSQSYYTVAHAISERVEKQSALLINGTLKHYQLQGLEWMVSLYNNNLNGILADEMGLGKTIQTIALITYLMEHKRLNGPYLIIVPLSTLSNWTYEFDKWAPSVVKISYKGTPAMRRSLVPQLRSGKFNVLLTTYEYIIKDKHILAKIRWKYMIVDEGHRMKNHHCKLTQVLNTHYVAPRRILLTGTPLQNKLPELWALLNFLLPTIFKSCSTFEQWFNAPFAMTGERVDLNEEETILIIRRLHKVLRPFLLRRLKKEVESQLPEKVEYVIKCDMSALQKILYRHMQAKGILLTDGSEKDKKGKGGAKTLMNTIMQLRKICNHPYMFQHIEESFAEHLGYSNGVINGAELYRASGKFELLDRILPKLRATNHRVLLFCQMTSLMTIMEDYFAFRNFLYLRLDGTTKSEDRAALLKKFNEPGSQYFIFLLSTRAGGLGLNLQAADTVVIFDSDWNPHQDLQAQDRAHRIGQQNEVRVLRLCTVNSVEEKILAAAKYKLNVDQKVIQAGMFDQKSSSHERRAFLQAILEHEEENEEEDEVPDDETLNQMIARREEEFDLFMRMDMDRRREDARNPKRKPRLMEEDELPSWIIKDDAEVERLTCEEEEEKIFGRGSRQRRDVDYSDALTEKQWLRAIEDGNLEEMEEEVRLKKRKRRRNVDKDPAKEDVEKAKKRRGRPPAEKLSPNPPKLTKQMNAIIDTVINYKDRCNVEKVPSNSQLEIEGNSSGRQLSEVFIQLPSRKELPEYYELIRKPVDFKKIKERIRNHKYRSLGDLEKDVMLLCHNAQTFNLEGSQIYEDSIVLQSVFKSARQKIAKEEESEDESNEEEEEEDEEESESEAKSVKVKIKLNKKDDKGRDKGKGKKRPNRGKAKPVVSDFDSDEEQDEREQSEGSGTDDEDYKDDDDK
ASSAY_EXPLANATION: SMARCA2 ATPase activity assay (ADP-Glo, chicken mononucleosome substrate)
Format: biochemical
TEST_SETTINGS: Table 3c.1; ATPase assay, enzyme 5 nM, ATP 250 uM, chicken mononucleosome 10 nM, 30 min preincubation
pIC50: −log10 of the molar value.
Rule: Fulfilled for pIC50 not less than 6, Not fulfilled for anything less.

>>> class_name("CNS(=O)(=O)c1cccc(C#Cc2cc(C(=O)Nc3cc(F)c(=O)n(CC(F)F)c3)sc2Cl)c1 [Compound 99c]")
"Fulfilled"
>>> class_name("CNC(=O)Cn1cc(C#Cc2cc(C(=O)Nc3cc(F)c(=O)n(CC(F)F)c3)sc2Cl)cn1 [Compound 121c]")
"Fulfilled"
>>> class_name("N#Cc1cc(C#Cc2cc(C(=O)Nc3cc(F)c(=O)n(CC(F)F)c3)sc2Cl)ccn1 [Compound 151c]")
"Fulfilled"
>>> class_name("Cn1cnc(-c2cc(NC(=O)c3cc(Cl)c(C(F)(F)F)s3)cn(CC(F)F)c2=O)c1 [Compound 91c]")
"Not fulfilled"
>>> class_name("CN(C)CCc1cc(NC(=O)c2cc(F)c(Cl)s2)cn(CC(F)F)c1=O [Compound 17c]")
"Not fulfilled"
>>> class_name("O=C(Nc1cc(F)c(=O)n(CC(F)F)c1)c1cc(C#CC2CCOCC2)c(Cl)s1 [Compound 22c]")
"Fulfilled"
>>> class_name("O=C(Nc1cc(F)c(=O)n(CC(F)F)c1)c1cc(C#Cc2cn[nH]c2)c(Cl)s1 [Compound 83c]")
"Fulfilled"
>>> class_name("O=C(Nc1cc(F)c(=O)n(CC(F)F)c1)c1nsc(Cl)n1 [Compound 76c]")
"Not fulfilled"
>>> class_name("O=C(Nc1cc(F)c(=O)n(CC(F)F)c1)c1cc(C#Cc2cccc(Cl)c2)c(Cl)s1 [Compound 56c]")
"Fulfilled"
>>> class_name("CC#Cc1cc(C(=O)Nc2cc(F)c(=O)n(CC(F)F)c2)sc1Cl [Compound 85c]")
"Fulfilled"
>>> class_name("O=C(Nc1cc(-c2cn[nH]c2)c(=O)n(CC(F)F)c1)c1cc(Cl)c(C(F)(F)F)s1 [Compound 110c]")
"Not fulfilled"
>>> class_name("Cn1cnc(-c2cc(NC(=O)c3sc(C(F)(F)F)cc3Cl)cn(CC(F)F)c2=O)c1 [Compound 27c]")
"Not fulfilled"
>>> class_name("Cc1sc(C(=O)Nc2cc(F)c(=O)n(CC(F)F)c2)cc1C#CC1COC1 [Compound 92c]")
"Fulfilled"
>>> class_name("O=C(Nc1cc(F)c(=O)n(CC(F)(F)CO)c1)c1cc(Cl)c(Cl)s1 [Compound 100c]")
"Not fulfilled"
>>> class_name("Cn1cncc1-c1cc(NC(=O)c2sc(C(F)(F)F)cc2Cl)cn(CC(F)F)c1=O [Compound 38c]")
"Not fulfilled"
>>> class_name("Cn1ccc(-c2cc(NC(=O)c3cc(Cl)c(C(F)(F)F)s3)cn(CC(F)F)c2=O)n1 [Compound 103c]")
"Not fulfilled"
>>> class_name("O=C(Nc1cc(F)c(=O)n(CC(F)F)c1)c1cc2cc(-c3ccncc3)ccc2s1 [Compound 84c]")
"Not fulfilled"
